Tested on: α7 integrin (LacZ reporter in α7βgal+/− myoblasts)
assayExplanation: Myoblast α7+/LacZ integrin FDG assay (Burkin assay in myoblasts, 96-well)
Type: cell-based, mouse
experimentalContext: 20 uM; α7+/LacZ myoblasts, 96-well
Mark True only for Burkin Assay in Myoblasts, signal relative to DMSO values smaller than 0.9; exact matches and larger values are False.

Exercise: Regarding `CC(=O)Nc1nonc1-c1nc2ccccc2n1CCC(C)C` , kindly confirm whether its Burkin Assay in Myoblasts, signal relative to DMSO is beneath 0.9.
Solution: False

Exercise: Regarding `O=C1CCc2cc(S(=O)(=O)Nc3ccc(C(F)(F)F)cc3)cc3c2N1CC3` , kindly confirm whether its Burkin Assay in Myoblasts, signal relative to DMSO is beneath 0.9.
Solution: False

Exercise: For `CCc1nc2ccccc2c(C(=O)NCc2ccccc2)c1C` , is the recorded Burkin Assay in Myoblasts, signal relative to DMSO below the cut-off of 0.9?
Solution: False

Exercise: Hello, is Burkin Assay in Myoblasts, signal relative to DMSO of the following molecule strictly smaller than 0.9? `Cc1nc2c(cnn2-c2ccccc2)c(=O)n1/N=C/c1ccccc1`
Solution: False

Exercise: Below 0.9 on Burkin Assay in Myoblasts, signal relative to DMSO? Entry `NS(=O)(=O)c1ccc(NC(=O)c2ccc(CNS(=O)(=O)c3cc(C(F)(F)F)ccc3Cl)cc2)cc1`
Solution: False

Exercise: Bench note: check whether `O=C(CCc1ccccc1)c1nnc(-c2ccccc2)o1` shows Burkin Assay in Myoblasts, signal relative to DMSO below 0.9
Solution: False

Exercise: Strictly below 0.9: is that where Burkin Assay in Myoblasts, signal relative to DMSO of `Cc1nnc(-c2ccc(N3CCOCC3)c([N+](=O)[O-])c2)o1` sits?
Solution: True

Exercise: Lab note: Burkin Assay in Myoblasts, signal relative to DMSO threshold 0.9. Does this molecule come in strictly under it? `Cc1ccccc1OCC(=O)Nc1nnc(-c2ccco2)s1`
Solution: True

Exercise: I'd appreciate it if you could check whether `CC(C)(C)c1csc(NC(=O)c2cccnc2)n1` has Burkin Assay in Myoblasts, signal relative to DMSO smaller than 0.9.
Solution: True

Exercise: Please determine if `CCCCN(CCCC)CCNC(=O)c1cn(C)c2ccc(S(=O)(=O)N(C)C3CCCCC3)cc2c1=O` is below 0.9 in terms of Burkin Assay in Myoblasts, signal relative to DMSO.
Solution: True

###

Would you mind telling me the reported CMV-LACZ in Myotubes, signal relative to DMSO of each entry?
System: β-galactosidase in CMV-LacZ C2C12 myotubes
assayExplanation: CMV-LacZ secondary screen in C2C12 myotubes (β-Gal stabilizing assay)
Format: cell-based, mouse
experimentalContext: 5 uM; C2C12 CMV-LacZ myotubes; fold relative to DMSO
Numbers only.

Reference set, count: 5
{"compound": "CCOc1ccccc1NC(=O)COC(=O)CNS(=O)(=O)c1ccc(C)cc1", "readoutValue": 0.9322}
{"compound": "O=C(CSc1nnc2c(n1)[nH]c1ccccc12)NCc1ccccc1F", "readoutValue": 0.9459}
{"compound": "Cc1ccc(NS(=O)(=O)c2cccc(C(=O)O)c2)cc1S(=O)(=O)N1CCOCC1", "readoutValue": 0.8958}
{"compound": "CC1CCN(C(CNS(=O)(=O)c2ccccc2)c2ccccc2)CC1 (stereo not drawn)", "readoutValue": 0.9989}
{"compound": "O=C(Nc1ccc(Cl)cc1N1CCOCC1)C1CCCCC1", "readoutValue": 1.322}

Working through the 3 compounds below one at a time, give CMV-LACZ in Myotubes, signal relative to DMSO for each.
1. CCCCCCC1CC(=O)NC(=O)N1 (stereo not drawn)
2. CNC(=O)CSc1nnc(-c2ccc3c(c2)OCO3)n1C
3. CCc1c(C2(O)CCCCC2)[nH]c2ncccc12

Solution:
0.8276
0.9686
0.8739

# batch size: 5; output CMV-LACZ in Myotubes, signal relative to DMSO per entry
1. COCCSc1ccccc1C(=O)Nc1cc(C)cc(C)c1
2. O=C(NCc1ccccc1)C(c1c(F)cccc1Cl)N(C(=O)c1csnn1)C1CC1 (stereo not drawn)
3. COc1ccc(CCNC(=O)c2cc(-c3cc(C)ccc3O)n[nH]2)cc1OC
4. O=C(Nc1ccccc1F)c1ccc([N+](=O)[O-])s1
5. O=C(O)CC1(c2ccccc2)C(=O)c2ccccc2C1=O

Solution:
1: 1.0460; 2: 0.9745; 3: 1.197; 4: 0.9313; 5: 1.0651

Please report CMV-LACZ in Myotubes, signal relative to DMSO for every entry that follows.
1. COc1cccc(C(=O)COc2ccc3ccc(=O)oc3c2)c1
2. O=C(Cn1cccc1C(=O)c1ccccc1)NCCCc1ccccc1

Solution:
1: 1.0578; 2: 0.8954

For each entry beneath this line, provide reported CMV-LACZ in Myotubes, signal relative to DMSO.
1. C/C(=N\NC(=O)c1cc(C)oc1C)c1ccc2ccccc2c1
2. COc1ccc(CNC(=O)CCN2C(=O)c3ccccc3C2=O)cc1
3. CCCS(=O)(=O)c1nc(S(=O)(=O)c2ccc(C)cc2)c(N2CCCC2)s1
4. CCOc1ccc2nc(Cl)sc2c1
5. CCN(C(=O)c1ccc(S(=O)(=O)N(C)C)cc1)C(C)C(=O)Nc1ccc(C)cc1 (stereo not drawn)
6. Cc1ccc(NCc2nnc(SCC(=O)Nc3nnc(C)s3)n2C)cc1
7. CN(C)C1(CN=Cc2cc(Cl)cc([N+](=O)[O-])c2O)CCCCC1
8. Cc1ccc(NC(=O)NCc2nc3ccccc3n2C)cc1

Solution:
[1.1251, 0.8782, 1.0031, 0.7918, 1.0074, 1.232, 1.183, 0.947]

Could you report CMV-LACZ in Myotubes, signal relative to DMSO for every entry in the following list?
1. Oc1c(Br)cc(Br)cc1CNc1cccc2cccnc12
2. Cc1ccc(C(=O)C(C)OC(=O)CNC(=O)c2ccc(Br)o2)cc1 (stereo not drawn)
3. Cc1nc2c(cnn2-c2ccccc2)c(=O)n1/N=C/c1ccccc1

Solution:
0.8436
1.167
1.001

Record CMV-LACZ in Myotubes, signal relative to DMSO per entry; entries follow.
1. COc1ccccc1CNS(=O)(=O)c1ccc(Cl)s1
2. CC(C)(C)Nc1nc(-c2ccc3c(c2)CCN3C(=O)C2CC2)cs1
3. Cc1[nH]c(=O)[nH]c(=O)c1S(=O)(=O)Nc1ccc(F)cc1Cl
4. O=C(CNC(=O)c1cccc(F)c1)N/N=C/c1cc(Br)ccc1OCc1ccccc1

Solution:
1. 0.8534
2. 1.1826
3. 0.9974
4. 1.0824
